Value source: paper PMC6631687

Assay: In vivo pharmacokinetics in rat plasma after i.v. administration
Conditions: iv; rat, single i.v. dose approx. 0.4 nmol, mean plasma curves, triexponential fit; read-out: Vd (volume of distribution)
QUANTITY KIND: Vd (L/kg)

> print(dat)
                                   compound  readout.number
1  CCCn1c(=O)c2[nH]c(C3(C)CCC3)nc2n(CCC[18F])c1=O [[^18F]MCBX]           0.715

a = CCCn1c(=O)c2[nH]c(C3CCCC3)nc2n(CCC[18F])c1=O [[^18F]CPFPX, reference compound]
b = CCCn1c(=O)c2[nH]c(C3CCC3)nc2n(CCC[18F])c1=O [[^18F]CBX]
Param metric = Vd; output whichever of a , b has the minimum value. Give the label of your selection.
b

====

Test: Microsomal stability assay (substrate depletion) in rat liver microsomes
Assay type: in vitro ADME
Settings: male, Sprague Dawley, pH 7.4, 8 µM substrate, 0.5 mg/mL protein, triplicate, read-out: In vitro t1/2 (SD)
QUANTITY KIND: half-life at 8 µM (min)

a = CCCn1c(=O)c2nc(C3CCCC3)[nH]c2n(CCCF)c1=O [CPFPX, reference compound]
b = CCCn1c(=O)c2[nH]c(C3CCC3)nc2n(CCCF)c1=O
Param metric = half-life at 8 µM; output whichever of a , b has the minimum value. Give the label of your selection.
a

====

Assay: In vivo pharmacokinetics in rat plasma after i.v. administration
Conditions: iv; rat, single i.v. dose approx. 0.4 nmol, mean plasma curves, triexponential fit; read-out: CLp (plasma clearance, in vivo)
QUANTITY KIND: clearance (mL/min/kg)

> print(dat)
                                   compound  quantity.kind  readout.number
1  CCCn1c(=O)c2[nH]c(C3(C)CCC3)nc2n(CCC[18F])c1=O [[^18F]MCBX]      clearance             9.1

a = CCCn1c(=O)c2[nH]c(C3CCCC3)nc2n(CCC[18F])c1=O [[^18F]CPFPX, reference compound]
b = CCCn1c(=O)c2[nH]c(C3CCC3)nc2n(CCC[18F])c1=O [[^18F]CBX]
Param metric = clearance; output whichever of a , b has the minimum value. Give the label of your selection.
b
(b: 3.22 mL/min/kg, a: 7.1 mL/min/kg)

====

Experiment: Lipophilicity (log P)
Format: physicochemical
QUANTITY KIND: logP

> print(dat)
                                   compound  readout.number
1  CCCn1c(=O)c2[nH]c(C3(C)CCC3)nc2n(CCCF)c1=O [MCBX]            2.82
2  CCCn1c(=O)c2[nH]c(C3CCC3)nc2n(CCCF)c1=O [CBX]            2.19
3  CCCn1c(=O)c2nc(C3CCCC3)[nH]c2n(CCCF)c1=O [CPFPX, reference compound]            2.93

====

Experiment: Prediction of in vivo plasma clearance from microsomal stability data (well-stirred liver model) and prediction accuracy
Format: in vitro ADME
Details: rat, predicted vs observed CLp
QUANTITY KIND: Fold Error CL (ratio predicted/observed)

> print(dat)
                                   compound  readout.number
1  CCCn1c(=O)c2nc(C3CCCC3)[nH]c2n(CCCF)c1=O [CPFPX, reference compound]            0.66
2  CCCn1c(=O)c2[nH]c(C3CCCC3)nc2n(CCC[18F])c1=O [[^18F]CPFPX, reference compound]            0.66
3  CCCn1c(=O)c2[nH]c(C3(C)CCC3)nc2n(CCC[18F])c1=O [[^18F]MCBX]            0.85
4  CCCn1c(=O)c2[nH]c(C3CCC3)nc2n(CCC[18F])c1=O [[^18F]CBX]            0.84
